Assay: Brain tissue distribution after intravenous administration
Format: in vivo, SD rats
Details: male, Sprague-Dawley (SD); brain tissue, rat, 3.2 mg/kg iv
Measurement label: Tmax (min)
Numeric only. Scale: min

Supply measured Tmax of CCCC1(CCC)NC(=O)c2cc(NC(=O)c3cc4cc(Cl)ccc4[nH]3)ccc2O1 in your reply.
15

---

Assay: Plasma pharmacokinetics after intravenous administration (UHPLC–MS/MS)
Type: in vivo, SD rats
Settings: both sexes, SD; rat plasma, 1.6 mg/kg iv
Measurement label: half-life (h)
State just the number; it will be interpreted in h.

State its half-life for this molecule: CCCC1(CCC)NC(=O)c2cc(NC(=O)c3cc4cc(Cl)ccc4[nH]3)ccc2O1 [compound 1]
4.8

---

Test: Plasma pharmacokinetics after intravenous administration (UHPLC–MS/MS)
Assay type: in vivo, SD rats
Conditions: both sexes, SD; rat plasma, 1.6 mg/kg iv
Measurement label: Vd (L/kg)
Kindly provide the numeric value in L/kg only, without the unit symbol.

State its Vd: CCCC1(CCC)NC(=O)c2cc(NC(=O)c3cc4cc(Cl)ccc4[nH]3)ccc2O1 [compound 1]
7.51

---

Test: Plasma pharmacokinetics after intravenous administration (UHPLC–MS/MS)
Type: in vivo, SD rats
Settings: both sexes, SD; rat plasma, 3.2 mg/kg iv
Measurement label: half-life
A complete answer gives the number followed by the unit.

Note half-life for the compound shown: CCCC1(CCC)NC(=O)c2cc(NC(=O)c3cc4cc(Cl)ccc4[nH]3)ccc2O1
3.08 h

---

Assay: Plasma pharmacokinetics after intravenous administration (UHPLC–MS/MS)
Format: in vivo, SD rats
Conditions: both sexes, SD; rat plasma, 3.2 mg/kg iv
Measurement label: clearance
Don't forget the unit after the number, please.

Tell me measured clearance for CCCC1(CCC)NC(=O)c2cc(NC(=O)c3cc4cc(Cl)ccc4[nH]3)ccc2O1 [compound 1] please.
0.94 L/h/kg

---

Assay: Brain tissue distribution after intravenous administration
Assay type: in vivo, SD rats
Settings: male, SD, rat, brain/plasma, iv, 3.2 mg/kg, 3.2 mg/kg iv, 0.25 h, read-out: CBrain/CPlasma ratio
Measurement label: Kp at 0.25 h
I'd appreciate a reply containing only the number, no unit.

Supply recorded Kp at 0.25 h for CCCC1(CCC)NC(=O)c2cc(NC(=O)c3cc4cc(Cl)ccc4[nH]3)ccc2O1 [compound 1] here.
0.112

---

Experiment: Brain tissue distribution after intravenous administration
Assay type: in vivo, SD rats
Details: male, SD, rat, plasma, iv, 3.2 mg/kg, 3.2 mg/kg iv, 8 h, read-out: CPlasma (concentration in plasma)
Measurement label: concentration at 8 h

Given the molecule CCCC1(CCC)NC(=O)c2cc(NC(=O)c3cc4cc(Cl)ccc4[nH]3)ccc2O1 , write its reported concentration at 8 h.
32.9 ng/g

---

Assay: Brain tissue distribution after intravenous administration
Type: in vivo, SD rats
Conditions: male, SD, rat, brain/plasma, iv, 3.2 mg/kg, 3.2 mg/kg iv, 2 h, read-out: CBrain/CPlasma ratio
Measurement label: Kp at 2 h

Consider the molecule CCCC1(CCC)NC(=O)c2cc(NC(=O)c3cc4cc(Cl)ccc4[nH]3)ccc2O1 . State its measured Kp at 2 h.
0.112

---

Test: Plasma pharmacokinetics after intravenous administration (UHPLC–MS/MS)
Assay type: in vivo, SD rats
Settings: both sexes, SD; rat plasma, 0.8 mg/kg iv
Measurement label: Cmax (ng/mL)
Reply numerically in ng/mL, unit not repeated.

Give the value of Cmax reported for the following: CCCC1(CCC)NC(=O)c2cc(NC(=O)c3cc4cc(Cl)ccc4[nH]3)ccc2O1 [compound 1]
1180

---

Assay: Plasma pharmacokinetics after intravenous administration (UHPLC–MS/MS)
Type: in vivo, SD rats
Conditions: both sexes, SD; rat plasma, 3.2 mg/kg iv
Measurement label: Cmax

Give the reported Cmax for this molecule. CCCC1(CCC)NC(=O)c2cc(NC(=O)c3cc4cc(Cl)ccc4[nH]3)ccc2O1
3710 ng/mL

---

Experiment: Plasma pharmacokinetics after intravenous administration (UHPLC–MS/MS)
Type: in vivo, SD rats
Settings: both sexes, SD; rat plasma, 0.8 mg/kg iv
Measurement label: half-life
Express the reported value numerically, then name its unit.

Give recorded half-life. CCCC1(CCC)NC(=O)c2cc(NC(=O)c3cc4cc(Cl)ccc4[nH]3)ccc2O1
274 min

---

Experiment: Plasma pharmacokinetics after intravenous administration (UHPLC–MS/MS)
Format: in vivo, SD rats
Details: both sexes, SD; rat plasma, 1.6 mg/kg iv
Description: 50 μL of the plasma to be tested was aspirated precisely and placed in a 1.5 mL centrifuge tube. Then 5 μL of internal standard working solution and 150 μL of methanol were added sequentially to the centrifuge tube, and the tube was vortexed for 60 s and centrifuged at 6147× g for 10 min. Finally, 100 μL of supernatant was taken and added to the injection vial for quantitative analysis by UHPLC–MS/MS. Liquid chromatography conditions. […]
Measurement label: AUC(0-inf) (ng·h/mL)
Give your result in ng·h/mL as a bare value.

Quick one: give measured AUC(0-inf) for CCCC1(CCC)NC(=O)c2cc(NC(=O)c3cc4cc(Cl)ccc4[nH]3)ccc2O1
1610

---

Assay: Plasma pharmacokinetics after intravenous administration (UHPLC–MS/MS)
Assay type: in vivo, SD rats
Conditions: both sexes, SD; rat plasma, 0.8 mg/kg iv
Measurement label: AUC(0-inf) (ng·h/mL)
Use ng·h/mL as the unit, but write only the number.

Identify measured AUC(0-inf) associated with CCCC1(CCC)NC(=O)c2cc(NC(=O)c3cc4cc(Cl)ccc4[nH]3)ccc2O1
900

---

Assay: Brain tissue distribution after intravenous administration
Assay type: in vivo, SD rats
Settings: male, SD, rat, brain, iv, 3.2 mg/kg, 3.2 mg/kg iv, 2 h, read-out: CBrain (concentration in brain tissue)
Measurement label: concentration at 2 h

Give concentration at 2 h for the following compound: CCCC1(CCC)NC(=O)c2cc(NC(=O)c3cc4cc(Cl)ccc4[nH]3)ccc2O1 [compound 1]
111 ng/g

---

Assay: Brain tissue distribution after intravenous administration
Assay type: in vivo, SD rats
Conditions: male, Sprague-Dawley (SD); plasma, rat, 3.2 mg/kg iv
Procedure: Brain tissue homogenate samples for analysis were prepared by adding 9 volumes of homogenate solution (MeOH/15 mMPBS (1: 2, v/v)) to one volume of brain homogenate and diluting it 10-fold. […] The data was processed using Origin 2021 to plot the drug concentration–time curve in plasma, and DAS 2.0 software was used to calculate the pharmacokinetic parameters by the […] statistical moment method, and the results of the experiments were expressed as mean ± standard deviation. […]
Measurement label: MRT (h)
Use h as the unit, but write only the number.

Return the recorded MRT value; entry: CCCC1(CCC)NC(=O)c2cc(NC(=O)c3cc4cc(Cl)ccc4[nH]3)ccc2O1
1.47

---

Test: Brain tissue distribution after intravenous administration
Type: in vivo, SD rats
Details: male, Sprague-Dawley (SD); brain tissue, rat, 3.2 mg/kg iv
Experimental: Brain tissue homogenate samples for analysis were prepared by adding 9 volumes of homogenate solution (MeOH/15 mMPBS (1: 2, v/v)) to one volume of brain homogenate and diluting it 10-fold. […] The data was processed using Origin 2021 to plot the drug concentration–time curve in plasma, and DAS 2.0 software was used to calculate the pharmacokinetic parameters by the […] statistical moment method, and the results of the experiments were expressed as mean ± standard deviation. […]
Measurement label: Cmax (ng/g)
Give the value in ng/g but do not write ng/g after it.

Kindly indicate its recorded Cmax. Item: CCCC1(CCC)NC(=O)c2cc(NC(=O)c3cc4cc(Cl)ccc4[nH]3)ccc2O1 [compound 1]
440

---

Assay: Brain tissue distribution after intravenous administration
Format: in vivo, SD rats
Settings: male, SD, rat, plasma, iv, 3.2 mg/kg, 3.2 mg/kg iv, 2 h, read-out: CPlasma (concentration in plasma)
Measurement label: concentration at 2 h (ng/g)
Write down the numeric answer in ng/g and omit the unit.

Name the recorded concentration at 2 h of the item CCCC1(CCC)NC(=O)c2cc(NC(=O)c3cc4cc(Cl)ccc4[nH]3)ccc2O1 in your answer.
1020

---

Test: Brain tissue distribution after intravenous administration
Assay type: in vivo, SD rats
Conditions: male, SD, rat, plasma, iv, 3.2 mg/kg, 3.2 mg/kg iv, 0.25 h, read-out: CPlasma (concentration in plasma)
Description: Brain tissue homogenate samples for analysis were prepared by adding 9 volumes of homogenate solution (MeOH/15 mMPBS (1: 2, v/v)) to one volume of brain homogenate and diluting it 10-fold. […] The data was processed using Origin 2021 to plot the drug concentration–time curve in plasma, and DAS 2.0 software was used to calculate the pharmacokinetic parameters by the […] statistical moment method, and the results of the experiments were expressed as mean ± standard deviation. […]
Measurement label: concentration at 0.25 h (ng/g)
The reply should be a number in ng/g, with the unit left off.

Name the recorded concentration at 0.25 h of the compound listed here: CCCC1(CCC)NC(=O)c2cc(NC(=O)c3cc4cc(Cl)ccc4[nH]3)ccc2O1 [compound 1]
4020
